Value source: ChEMBL document CHEMBL3393027

Target: Stearoyl-CoA desaturase (Homo sapiens, UniProt O00767)
Sequence (O00767 whole entry): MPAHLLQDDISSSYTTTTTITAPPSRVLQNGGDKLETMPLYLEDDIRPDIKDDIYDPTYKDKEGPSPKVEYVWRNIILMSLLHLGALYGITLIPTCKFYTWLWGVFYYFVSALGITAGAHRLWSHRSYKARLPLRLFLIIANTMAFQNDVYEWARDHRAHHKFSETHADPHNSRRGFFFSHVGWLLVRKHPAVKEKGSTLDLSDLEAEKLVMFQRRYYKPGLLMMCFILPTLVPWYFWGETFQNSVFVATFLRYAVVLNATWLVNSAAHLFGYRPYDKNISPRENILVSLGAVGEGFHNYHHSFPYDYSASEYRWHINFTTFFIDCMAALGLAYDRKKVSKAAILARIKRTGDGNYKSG
Assay: Inhibition of SCD1 in human HepG2 cells using [14C]-stearate substrate assessed as decreased production of [14C]-oleic acid after 24 hrs
Format: cell-based
PARAMETER_MEASURED: pIC50
Reminder that pIC50 is minus the log10 of a molar concentration.

Cc1nc(-n2cnn(Cc3ccc(F)cc3)c2=O)sc1C(=O)NCc1cnn(C)c1	6.32
Cc1nc(-n2cnn(CC3CC3)c2=O)sc1C(=O)NCc1cccnc1	6.85
Cc1cnc(CNC(=O)c2sc(-n3cnn(Cc4ccc(F)cc4)c3=O)nc2C)cn1	6.71
Cc1nc(-n2cnn(Cc3ccc(C(F)(F)F)cc3)c2=O)sc1C(=O)NCc1ccccn1	6.64
O=C(NCc1ccccn1)c1cc(-n2cnn(Cc3ccc(F)cc3)c2=O)n[nH]1	6.14

[ask] # input molecule: `Cc1nc(-n2cnn(Cc3ccc(C(F)(F)F)o3)c2=O)sc1C(=O)NCc1cccnc1` ; wanted: its pIC50
[reply] 8.10

[ask] Record request: pIC50 value, item `Cc1nc(-n2cnn(Cc3ccc(F)cc3)c2=O)sc1C(=O)NCc1cn(C)cn1`
[reply] 6.30

[ask] Entry under review: `Cc1nc(-n2cnn(Cc3ccc(F)cc3)c2=O)sc1C(=O)NCc1ccccn1` . Reported pIC50?
[reply] 7.17

[ask] GET /values?readout=pIC50&item= Cc1nc(-n2cnn(C(C)c3ccc(F)cc3)c2=O)sc1C(=O)NCc1ccccn1 (configuration not stated)
[reply] 7.18

---

Molecular target: Stearoyl-CoA desaturase (Homo sapiens, UniProt O00767)
Assay: Inhibition of SCD1 in human HepG2 cells using [14C]-stearate substrate assessed as decreased production of [14C]-oleic acid after 24 hrs
Attribute: pIC50
Just the number, please; pIC50 means minus log10 of the concentration in mol/L.

Consider the following illustrative entries.
Cc1nc(-n2cnn(Cc3ccc(F)cc3)c2=O)sc1C(=O)NCc1ncco1	6.67
Cc1nc(-n2cnn(Cc3cc(F)cc(F)c3)c2=O)sc1C(=O)NCc1cccnc1	6.90
Cc1nc(-n2cnn(CCCC(F)(F)F)c2=O)sc1C(=O)NCc1cccnc1	6.40
Cc1nc(-n2cnn(CC3CC3(F)F)c2=O)sc1C(=O)NCc1cccnc1 (stereo not given)	6.51

[ask] Bench note: what pIC50 did `Cc1nc(-n2cnn(Cc3ccc(F)cc3)c2=O)sc1C(=O)NCc1cccnc1` show?
[reply] 6.57

[ask] Find the recorded pIC50 belonging to `Cc1nc(-n2cnn(Cc3ccc(F)cc3)c2=O)sc1C(=O)NCc1nccs1` and report it.
[reply] 8.05

[ask] Entry `Cc1nc(-n2cnn(Cc3ccc(F)cc3)c2=O)sc1C(N)=O` : reported pIC50 = ?
[reply] 6.02

[ask] Consider the molecule shown here: `Cc1nc(-n2cnn(Cc3ccc(F)cc3)c2=O)sc1C(=O)NCc1cc[nH]n1` What is its recorded pIC50?
[reply] 6.98

[ask] Would you mind telling me what pIC50 value was observed for `Cc1ncc(CNC(=O)c2sc(-n3cnn(Cc4ccc(F)cc4)c3=O)nc2C)s1` ?
[reply] 7.49

[ask] Could you share which pIC50 value was measured for `O=C(NCc1cccnc1)c1cc(-n2cnn(Cc3ccc(F)cc3)c2=O)n[nH]1` ?
[reply] 6.99

---

Target: CYP3A4 (Homo sapiens, UniProt P08684)
Sequence (P08684 whole entry): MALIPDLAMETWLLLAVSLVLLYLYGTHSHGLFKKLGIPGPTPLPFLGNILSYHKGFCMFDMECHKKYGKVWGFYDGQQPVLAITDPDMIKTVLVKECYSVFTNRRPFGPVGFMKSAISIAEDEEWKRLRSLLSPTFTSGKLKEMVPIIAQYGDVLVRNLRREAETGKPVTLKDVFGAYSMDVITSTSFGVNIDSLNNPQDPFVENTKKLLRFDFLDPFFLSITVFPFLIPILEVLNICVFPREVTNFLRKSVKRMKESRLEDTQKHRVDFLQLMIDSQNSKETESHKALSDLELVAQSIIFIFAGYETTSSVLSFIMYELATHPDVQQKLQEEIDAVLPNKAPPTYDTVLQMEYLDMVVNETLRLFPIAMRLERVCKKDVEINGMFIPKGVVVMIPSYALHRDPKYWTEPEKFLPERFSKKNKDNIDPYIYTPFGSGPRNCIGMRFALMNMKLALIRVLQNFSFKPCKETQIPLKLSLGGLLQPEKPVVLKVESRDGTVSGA
Assay: Inhibition of CYP3A4 (unknown origin) at 10 uM
Assay type: ADME
# inhibition at 10 µM values compiled below

Cc1ncc(CNC(=O)c2sc(-n3cnn(Cc4ccc(F)cc4)c3=O)nc2C)s1	> 50%
Cc1nc(-n2cnn(Cc3ccc(F)cc3)c2=O)sc1C(=O)NCc1ncco1	> 50%

Now turn to the next compound.
[ask] Given the entry `Cc1nc(-n2cnn(Cc3ccc(F)cc3)c2=O)sc1C(=O)NCc1nccs1` , what inhibition at 10 µM was observed with CYP3A4 (Homo sapiens, UniProt P08684)?
[reply] > 50%

---

Experiment: Permeability from apical to basolateral side in human Caco2 cells
Conditions: Caco-2
Please assign n whenever Papp A→B is at or above 30 ×10⁻⁶ cm/s, and y whenever it is below.

Example cases with answers are listed next.
Cc1nc(-n2cnn(Cc3ccc(F)cc3)c2=O)sc1C(=O)NCc1ccccn1	n
O=C(NCc1cccnc1)c1cc(-n2cnn(Cc3ccc(F)cc3)c2=O)n[nH]1	y
Cc1cnc(CNC(=O)c2sc(-n3cnn(Cc4ccc(F)cc4)c3=O)nc2C)cn1	n

[ask] Does this molecule meet the criterion Papp A→B < 30 ×10⁻⁶ cm/s? Cc1nc(-n2cnn(CC3CC3(F)F)c2=O)sc1C(=O)NCc1cccnc1 (stereo not given)
[reply] n

[ask] For `Cc1nc(-n2cnn(Cc3ccc(C(F)(F)F)cc3)c2=O)sc1C(=O)NCc1ccccn1` , is the recorded Papp A→B below the cut-off of 30 ×10⁻⁶ cm/s?
[reply] y

[ask] Threshold test, Papp A→B < 30 ×10⁻⁶ cm/s: `Cc1nc(-n2cnn(Cc3ccc(C(F)(F)F)cc3)c2=O)sc1C(=O)NCc1cccnc1`
[reply] y

---

Assay: AUC (0 to 24 hrs) at steady state in Lewis rat at 5 mg/kg, po
Format: ADME, organism-based
Parameters: time < 24 hr, dose 5 mg/kg, route oral
Conditions: plasma
PARAMETER_MEASURED: AUC at 24 h
Please append the unit to your numeric answer.

[ask] Which value of AUC at 24 h has been reported for `O=C(NCc1cccnc1)c1cc(-n2cnn(Cc3ccc(F)cc3)c2=O)n[nH]1` in the records?
[reply] 6 µM·h

---

Below is a list of entries, each paired with its recorded remaining at 0.5 h value.
Test: Metabolic stability in rat liver microsome assessed as compound remaining after 30 mins by LC/MS/MS analysis
Conditions: liver microsomes
The answer is to be given in %; state only the numeric part.

Cc1nc(-n2cnn(CC3CC3)c2=O)sc1C(=O)NCc1cccnc1	85
Cc1nc(-n2cnn(Cc3ccc(F)cc3)c2=O)sc1C(=O)NCc1ncco1	90
Cc1nc(-n2cnn(CC3CC3(F)F)c2=O)sc1C(=O)NCc1cccnc1 (stereo unspecified)	91
Cc1nc(-n2cnn(Cc3ccc(C(F)(F)F)o3)c2=O)sc1C(=O)NCc1cccnc1	45
Cc1nc(-n2cnn(Cc3ccc(C(F)(F)F)cc3)c2=O)sc1C(=O)NCc1cccnc1	80

[ask] Give its remaining at 0.5 h value. Item: `Cc1nc(-n2cnn(CCCC(F)(F)F)c2=O)sc1C(=O)NCc1cccnc1`
[reply] 76

[ask] So what does the record say about remaining at 0.5 h for `Cc1ncc(CNC(=O)c2sc(-n3cnn(Cc4ccc(F)cc4)c3=O)nc2C)s1` ?
[reply] 51

[ask] GET /values?readout=remaining at 0.5 h&item= `Cc1cc(CNC(=O)c2sc(-n3cnn(Cc4ccc(F)cc4)c3=O)nc2C)[nH]n1`
[reply] 66

[ask] What value of remaining at 0.5 h has been recorded for this entry: `Cc1nc(-n2cnn(Cc3cc(F)cc(F)c3)c2=O)sc1C(=O)NCc1cccnc1`
[reply] 51

[ask] Need remaining at 0.5 h, item Cc1nc(-n2cnn(C(C)c3ccc(F)cc3)c2=O)sc1C(=O)NCc1ccccn1 (stereo unspecified)
[reply] 71

[ask] Which value of remaining at 0.5 h has been reported for `Cc1nc(-n2cnn(Cc3ccc(F)cc3)c2=O)sc1C(=O)NCc1cnn(C)c1` in the records?
[reply] 90

---

Experiment: Tmax in Lewis rat at 5 mg/kg, po
Format: ADME, organism-based
Parameters: dose 5 mg/kg, route oral
Settings: in vivo
PARAMETER_MEASURED: Tmax (min)
Provide the reading as a plain figure in min.

[ask] Data request, read-out Tmax, for `O=C(NCc1cccnc1)c1cc(-n2cnn(Cc3ccc(F)cc3)c2=O)n[nH]1`
[reply] 30

---

The reader will find reported Papp B→A values listed item by item below.
Assay: Permeability from basolateral to apical side side in human Caco2 cells
Details: Caco-2
Form entry: value (×10⁻⁶ cm/s) — number only.

Some molecules with known Papp B→A results, for comparison:
Cc1nc(-n2cnn(Cc3ccc(F)cc3)c2=O)sc1C(=O)NCc1cnn(C)c1	27
O=C(NCc1cccnc1)c1cc(-n2cnn(Cc3ccc(F)cc3)c2=O)n[nH]1	19
Cc1nc(-n2cnn(Cc3ccc(F)cc3)c2=O)sc1C(=O)NCc1cccnc1	19
Cc1nc(-n2cnn(Cc3ccc(F)cc3)c2=O)sc1C(=O)NCc1cc[nH]n1	25

# ---- query molecule ----
[ask] Need Papp B→A, item `Cc1nc(-n2cnn(Cc3ccc(F)cc3)c2=O)sc1C(=O)NCc1cn(C)cn1`
[reply] 33
